Each entry below carries its recorded Thrombin at 100 μM %.
target: Thrombin, from Human Plasma (Homo sapiens, UniProt P00734); experiment: Enzymatic assay, thrombin
Where a SMILES comes first, the peptide text is derived from it.
Give the value, in units of %, as a plain number.

The examples below pair each entry with its known result.
compound	Thrombin at 100 μM %, %
CC[C@H](C)[C@@H]1NC(=O)[C@@H]2CCCN2C(=O)[C@@H]2CCCN2C(=O)[C@H](CC(=O)O)NC(=O)[C@H](CO)NC(=O)[C@H](CCCCN)NC(=O)[C@H]([C@@H](C)O)NC(=O)[C@@H]2CSSC[C@H](NC1=O)C(=O)N[C@@H](Cc1ccc(O)cc1)C(=O)N1CCC[C@@H]1C(=O)N1CCC[C@H]1C(=O)N[C@@H](Cc1ccccc1)C(=O)N2 [Ex. 5] (HELM PEPTIDE1{F.C.T.K.S.D.P.P.I.C.Y.[dP].P}$PEPTIDE1,PEPTIDE1,2:R3-10:R3|PEPTIDE1,PEPTIDE1,1:R1-13:R2$$$V2.0)	0.5
CCCC[C@@H]1NC(=O)[C@@H]2CCCN2C(=O)[C@@H]2CCCN2C(=O)[C@H](CC(=O)O)NC(=O)[C@H](CO)NC(=O)[C@H](CCCCN)NC(=O)[C@H]([C@@H](C)O)NC(=O)[C@@H]2CSSC[C@H](NC1=O)C(=O)N[C@@H](Cc1ccc(O)cc1)C(=O)N1CCC[C@@H]1C(=O)N1CCC[C@H]1C(=O)N[C@@H](C1CCCCC1)C(=O)N2 [Ex. 63] (HELM PEPTIDE1{[O=C([C@@H](N[*:1])C1CCCCC1)[*:2]].C.T.K.S.D.P.P.[Nle].C.Y.[dP].P}$PEPTIDE1,PEPTIDE1,2:R3-10:R3|PEPTIDE1,PEPTIDE1,1:R1-13:R2$$$V2.0)	1
CCCC[C@@H]1NC(=O)[C@H]([C@@H](C)O)NC(=O)[C@@H]2CSSC[C@H](NC(=O)[C@H]([C@@H](C)CC)NC(=O)[C@@H]3CCCN3C(=O)[C@@H]3CCCN3C(=O)[C@H](CC(=O)O)NC(=O)[C@H](CO)NC1=O)C(=O)N[C@@H](Cc1ccc(O)cc1)C(=O)N1CCC[C@@H]1C(=O)N1CCC[C@H]1C(=O)N[C@@H](Cc1ccccc1)C(=O)N2 [Ex. 60] (HELM PEPTIDE1{F.C.T.[Nle].S.D.P.P.I.C.Y.[dP].P}$PEPTIDE1,PEPTIDE1,2:R3-10:R3|PEPTIDE1,PEPTIDE1,1:R1-13:R2$$$V2.0)	0
CCCC[C@@H]1NC(=O)[C@@H]2CCCN2C(=O)[C@H]2CCCN2C(=O)[C@H](Cc2ccc(O)cc2)NC(=O)[C@@H]2CSSC[C@H](NC1=O)C(=O)N[C@@H]([C@@H](C)O)C(=O)N[C@@H](CCCCN)C(=O)N[C@@H](CO)C(=O)N[C@@H](CC(=O)O)C(=O)N1CCC[C@H]1C(=O)N1CCC[C@H]1C(=O)N[C@@H]([C@@H](C)CC)C(=O)N2 [Ex. 44] (HELM PEPTIDE1{[Nle].C.T.K.S.D.P.P.I.C.Y.[dP].P}$PEPTIDE1,PEPTIDE1,2:R3-10:R3|PEPTIDE1,PEPTIDE1,1:R1-13:R2$$$V2.0)	9

For the next question, use this compound.
INPUT: Output Thrombin at 100 μM % of CCCC[C@@H]1NC(=O)[C@@H]2CCCN2C(=O)[C@H]2CCCN2C(=O)[C@H](Cc2ccc(O)cc2)NC(=O)[C@@H]2CSSC[C@H](NC1=O)C(=O)N[C@@H]([C@@H](C)O)C(=O)N[C@@H](C)C(=O)N[C@@H](CO)C(=O)N[C@@H]([C@@H](C)CC)C(=O)N1CCC[C@H]1C(=O)N1CC(NC(=O)c3ccccc3)C[C@H]1C(=O)N[C@@H](CCC(N)=O)C(=O)N2 (single isomer, unassigned) [Ex. 88]
OUTPUT: 0.2
